Each recorded value in this set is attributed to patent US20240084003A1.

Target: T1, murine CD22 protein (ACROBiosystems, SI2-M52Ha) (murine, UniProt P35329 22-708)
T1 construct: extracellular domain; also called murine CD22-ECD; murine CD22-ECD-His
T1 sequence (looked up): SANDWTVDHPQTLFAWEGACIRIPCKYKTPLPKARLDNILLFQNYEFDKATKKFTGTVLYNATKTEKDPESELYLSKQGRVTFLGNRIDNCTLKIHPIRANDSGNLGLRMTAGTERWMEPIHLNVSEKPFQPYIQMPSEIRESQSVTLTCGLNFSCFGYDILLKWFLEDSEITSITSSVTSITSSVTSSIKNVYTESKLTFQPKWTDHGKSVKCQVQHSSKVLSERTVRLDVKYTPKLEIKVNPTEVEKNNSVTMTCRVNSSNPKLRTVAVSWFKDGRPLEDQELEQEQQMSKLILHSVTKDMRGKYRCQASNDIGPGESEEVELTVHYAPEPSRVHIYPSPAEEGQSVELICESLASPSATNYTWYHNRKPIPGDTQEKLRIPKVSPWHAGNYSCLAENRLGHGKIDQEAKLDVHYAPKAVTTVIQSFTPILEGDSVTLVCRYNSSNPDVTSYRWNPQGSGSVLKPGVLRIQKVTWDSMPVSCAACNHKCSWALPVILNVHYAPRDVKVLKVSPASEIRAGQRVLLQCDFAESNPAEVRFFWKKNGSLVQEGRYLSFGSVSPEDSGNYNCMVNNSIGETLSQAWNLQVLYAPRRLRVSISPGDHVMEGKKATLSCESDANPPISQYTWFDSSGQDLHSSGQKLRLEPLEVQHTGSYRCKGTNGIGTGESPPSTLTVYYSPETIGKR
Test: ELISA, coated murine CD22, 0.00001 nM Ab
Observable: OD450 (OD450)
Give a bare numeral; the unit OD450 is implied.

Recorded results for 2 binders are shown here.
F1.231.15 human-murine chimeric antibody (antibody, human IgG1, V domains shown, Chimeric: murine V regions on human IgG1 heavy constant region and kappa light constant region) VH: QVQLQQPGAELVKPGASVKLSCKTSGYTFTIYWMQWVKQRPGRGLEWIGRIDPHSGDTHYNENFTTKVTLTVDETSNTAYMHLSGLTSEDSAVYYCARRDYSYYVLDYWGQGTSVTVSS VL: DVVLTQTPLSLPVSLGDQASISCRSSQSLVHINGDTYLHWYLQKPGQSPKLLIYTVFNRFSGVPDRFSGSGSGTDFTLKISRVEAEDLGAYFCSQSTHVPYTFGGGTKLEIKR ... 0.06
F2.55.1 human-murine chimeric antibody (antibody, human IgG1, lambda, V domains shown, Chimeric, human IgG1 / lambda; VL tied by name) VH: QVTLKESGPGILQPSQTLSLTCSFSGFSLSTFPLGVGWIRQPSGKGLEWLAHVWWNDDDYYNPALKSRLTISKDTSNTRVFLSVASVDTAETATYYCARLNWDRWYFDVWGTGTTVTVSS VL: QLVLTQSSSASFSLGASAKLTCTLSSQHSAYTVEWYQQQPLKPPKYVMELKKDGSHSTGDGIPDRFSGSSSGADRYLSISNIQPEDEAIYICGVGDTVKEQFVFGGGTKVTVLG ... 0.06

// switching to the query binder
[in] Which OD450 reading was recorded for the binder F2.173.9 human-murine chimeric antibody (antibody, human IgG1, lambda, V domains shown, Chimeric, human IgG1 / lambda) VH: EVQLVESGGDLVKPGESLKLSCEASGFTFSNYAMSWVRQTPDRRLEWVATISSIGSFTYYSDSVKGRFTISRDNVKSTLHLQMNNLKSGDTAIYFCARLGVYFDSWGQGTTLTVSS VL: QLVLTQSSSASFSLGASAKLTCTLSSQHSTYTIEWYQQQPHKPPKFVMEIKKDGSHYTGDGIPDRFSGSSSGADRYLSISNIQPEDETIYICGVSDMIKDQFVYVFGGGTKVTVLG ?
[out] 0.06
